System: CCRIS mutagenicity, Ames/micronucleus/aberration tests
Test: CCRIS mutagenicity studies
Settings: Test System: AMES SALMONELLA TYPHIMURIUM; Strain/Indicator: TA98; Metabolic Activation: RAT, LIVER, S-9, PHENOBARBITAL AND BETA-NAPHTHOFLAVONE; Method: PREINCUBATION
Active and inactive are the calls of the source. How the calls were made is not given here.
TEST READOUT: mutagenic call

Example molecules with recorded mutagenic call:
smiles_entry=COc1ccc2c(cc3c4c(cc5c(c42)OCO5)C(=O)C(=O)N3C)c1OC test_readout="mutagenic call" result="active; positive"
smiles_entry=COc1ccc2c(c1)-c1nccc3cc(OC)c(OC)c(c13)C2=O test_readout="mutagenic call" result="active; positive"
smiles_entry=CCOc1cc(C=O)ccc1O test_readout="mutagenic call" result="inactive; negative"
smiles_entry=N#CCc1ccc(Cl)cc1 test_readout="mutagenic call" result="inactive; negative"
smiles_entry=Cc1ccc(C(=O)c2cc(O)c(O)c([N+](=O)[O-])c2)cc1 test_readout="mutagenic call" result="inactive; negative"

// below: mutagenic call requested for another molecule
# molecule COC1=C[C@@H]2[C@@H]3Cc4ccc(OC)c(O)c4[C@]2(CCN3C)CC1=O ; its mutagenic call = inactive; negative

* * *

Tested on: CCRIS mutagenicity, Ames/micronucleus/aberration tests
Assay: CCRIS mutagenicity studies
Settings: Test System: E. COLI; Strain/Indicator: WP2; Metabolic Activation: RAT, LIVER, S-9, AROCLOR 1254; Method: STANDARD PLATE
Calls of active or inactive are those of the source. How the calls were made is not given here.
Bench note: report the call from active, inactive

Please state the recorded outcome for this molecule: O=NO inactive

Please state the recorded outcome for this molecule: O=S(O)S(=O)(=O)O inactive

Please state the recorded outcome for this molecule: CC(=O)C1c2cccc(O)c2C(=O)c2c(O)cccc21 inactive

Please state the recorded outcome for this molecule: CCOS(C)(=O)=O active

Please state the recorded outcome for this molecule: CCCCCCCCCCCCOC(=O)CCSCCC(=O)OCCCCCCCCCCCC inactive

Please state the recorded outcome for this molecule: c1ccc(-c2ccccc2)cc1 inactive

Please state the recorded outcome for this molecule: CN(C)N=O active

Please state the recorded outcome for this molecule: CC(C)=CC1C(C(=O)OCc2cccc(Oc3ccccc3)c2)C1(C)C (stereo not drawn) inactive

* * *

Test system: CCRIS mutagenicity, Ames/micronucleus/aberration tests
Test: CCRIS mutagenicity studies
Settings: Test System: AMES SALMONELLA TYPHIMURIUM; Strain/Indicator: TA97A; Metabolic Activation: NONE; Method: STANDARD PLATE
The source made the active and inactive calls. The rule behind the calls is not given here.
Bench note: report the call from active, inactive

Please state the recorded outcome for this molecule: CC1OC(OC2CC(O)(CO)Cc3c(O)c4c(c(O)c32)C(=O)c2ccccc2C4=O)C(I)C(O)C1O (centres undefined) inactive

Please state the recorded outcome for this molecule: O=C1c2c(O)ccc(O)c2C(=O)c2c(NCCNCCO)ccc(NCCNCCO)c21 inactive

Please state the recorded outcome for this molecule: CC(=O)O[C@H]1CC[C@]2(C)[C@H]3CC[C@]4(C)[C@@H]([C@H](C)CCCC(C)C)CC[C@H]4[C@@H]3C[C@@H]3N(N4C(=O)c5ccccc5C4=O)[C@@]32C1 (some centres undefined) active

Please state the recorded outcome for this molecule: Cc1ccc(/C(C#N)=C\C=C\c2ccccc2[N+](=O)[O-])cc1 active

* * *

Test system: CCRIS mutagenicity, Ames/micronucleus/aberration tests
Assay: CCRIS mutagenicity studies
Conditions: Test System: AMES SALMONELLA TYPHIMURIUM; Strain/Indicator: TA98; Metabolic Activation: NONE; Method: PREINCUBATION
Activity calls are given as the source filed them. How the calls were made is not given here.
Bench note: report the call from active, inactive

Please state the recorded outcome for this compound: CCCCC(CC)COC(=O)CCCCC(=O)O (centres undefined) inactive

Please state the recorded outcome for this compound: CCOc1cc(C=O)ccc1O inactive

Please state the recorded outcome for this compound: Nc1nc(-c2ccc([N+](=O)[O-])cc2)nc2c1ncn2[C@@H]1O[C@H](CO)[C@@H](O)[C@H]1O active

Please state the recorded outcome for this compound: CC(O)COC(C)(C)C (centres undefined) inactive

Please state the recorded outcome for this compound: O=C(O)C(=O)C(=O)O inactive

Please state the recorded outcome for this compound: O=C1c2c(O)cccc2Cc2cccc(O)c21 inactive

Please state the recorded outcome for this compound: CCCCCCCCC inactive

Please state the recorded outcome for this compound: CC(=O)N=C1C=CC(=O)C=C1 inactive

Please state the recorded outcome for this compound: CN1C(=O)CC[C@H]1c1cccnc1 inactive

Please state the recorded outcome for this compound: O=C1OC(=O)c2c(Br)c(Br)c(Br)c(Br)c21 inactive

Please state the recorded outcome for this compound: S=C(NC1CCCCC1)NC1CCCCC1 inactive

Please state the recorded outcome for this compound: CCN1CCOCC1 inactive

Please state the recorded outcome for this compound: COc1ccc(/C=N/n2nnc3c([nH]c4ccccc43)c2=O)cc1 active

Please state the recorded outcome for this compound: O=C1c2ccccc2-c2ccc([N+](=O)[O-])cc21 active

* * *

Tested on: CCRIS mutagenicity, Ames/micronucleus/aberration tests
Experiment: CCRIS mutagenicity studies
Settings: Test System: AMES SALMONELLA TYPHIMURIUM; Strain/Indicator: TA1537; Metabolic Activation: RAT, LIVER, S-9, AROCLOR 1254; Method: PREINCUBATION
Activity calls are given as the source filed them. The rule behind the calls is not given here.
Bench note: report the call from active, inactive

Please state the recorded outcome for this compound: COc1cc2c(cc1OC)CN(N=O)CC2 active

Please state the recorded outcome for this compound: NC(=O)CCCCC(N)=O inactive

Please state the recorded outcome for this compound: CC1(C)S[C@@H]2[C@H](NC(=O)[C@H](N)c3ccccc3)C(=O)N2[C@H]1C(=O)O inactive

* * *

Test system: CCRIS mutagenicity, Ames/micronucleus/aberration tests
Experiment: CCRIS mutagenicity studies
Settings: Test System: AMES SALMONELLA TYPHIMURIUM; Strain/Indicator: TA1537; Metabolic Activation: S-9; Method: STANDARD PLATE
Activity calls are given as the source filed them. The rule behind the calls is not given here.
Bench note: report the call from active, inactive

Please state the recorded outcome for this molecule: CC[C@]1(O)CC2CN(CCc3c([nH]c4ccccc34)[C@@](C(=O)OC)(c3cc4c(cc3OC)N(C=O)[C@H]3[C@@](O)(C(=O)OC)[C@H](OC(C)=O)[C@]5(CC)C=CCN6CC[C@]43[C@@H]65)C2)C1 (some centres undefined) inactive

Please state the recorded outcome for this molecule: Cc1cccn2c(=O)c(-c3nnn[nH]3)cnc12 inactive

Please state the recorded outcome for this molecule: CC(C)CCNc1snc2ccccc12 inactive

Please state the recorded outcome for this molecule: O=C(CCl)Nc1snc2cc(Cl)ccc12 active

* * *

Tested on: CCRIS mutagenicity, Ames/micronucleus/aberration tests
Assay: CCRIS mutagenicity studies
Settings: Test System: AMES SALMONELLA TYPHIMURIUM; Strain/Indicator: TA100; Metabolic Activation: RAT, LIVER, S-9, PHENOBARBITAL; Method: STANDARD PLATE
Activity calls are given as the source filed them. How the calls were made is not given here.
Bench note: report the call from 1.0 for active, 0.0 for inactive

Please state the recorded outcome for this compound: CC(=O)Nc1ccc2c(c1)[nH]c1ccccc12 0.0

Please state the recorded outcome for this compound: COc1cccc2c1cc1c3c(cc4c(c32)OCO4)C(=O)N1 0.0

Please state the recorded outcome for this compound: Nc1c(N=Nc2ccc([N+](=O)[O-])cc2)c(S(=O)(=O)O)cc2cc(S(=O)(=O)O)c(N=Nc3ccccc3)c(O)c12 1.0

Please state the recorded outcome for this compound: COc1cc(O)c2c(=O)c3c(OC)cc4c(c3oc2c1OC)C1CCOC1O4 (configuration not stated) 0.0

Please state the recorded outcome for this compound: C[C@@H]1CC[C@@]2(OC1)O[C@H]1C[C@H]3[C@@H]4CC=C5C[C@@H](O[C@@H]6O[C@H](CO)[C@@H](O)[C@H](O[C@@H]7O[C@H](CO)[C@@H](O)[C@H](O)[C@H]7O)[C@H]6O[C@@H]6O[C@@H](C)[C@H](O)[C@@H](O)[C@H]6O)CC[C@]5(C)[C@H]4CC[C@]3(C)[C@H]1[C@@H]2C 0.0

Please state the recorded outcome for this compound: CCc1c2ccccc2c(C)c2c1ccc1ccccc12 0.0

Please state the recorded outcome for this compound: COc1cc(OC)c2nc3occc3c(OC)c2c1 1.0

Please state the recorded outcome for this compound: N=C(N)c1ccc2cc(C(=N)N)[nH]c2c1 0.0

Please state the recorded outcome for this compound: COc1cccc2c1ccc1c(C(=O)O)cc3c(c12)OCO3 0.0

Please state the recorded outcome for this compound: c1ccc(-c2ccccn2)nc1 1.0

Please state the recorded outcome for this compound: O=c1c2c(O)cccc2oc2c3c(cc(O)c12)O[C@H]1OC=C[C@@H]31 1.0

Please state the recorded outcome for this compound: C[C@@H]1C[C@H]2[C@@H]3CCC4=CC(=O)C=C[C@]4(C)[C@@]3(F)[C@@H](O)C[C@]2(C)[C@@]1(O)C(=O)CO 0.0

Please state the recorded outcome for this compound: c1ccc2c(c1)ccc1[nH]c3ccc4ccccc4c3c12 0.0

Please state the recorded outcome for this compound: CCc1c2ccccc2cc2c1ccc1ccccc12 0.0

Please state the recorded outcome for this compound: C[n+]1ccc(-c2ccccn2)cc1 0.0

Please state the recorded outcome for this compound: CCc1c2ccccc2c(C)c2ccc3ccccc3c12 0.0

Please state the recorded outcome for this compound: COc1cc2c(c3oc4cccc(OC(C)=O)c4c(=O)c13)C1C=COC1O2 (configuration not stated) 1.0

src = PubChem BioAssay AID1259407
